These data points were gathered from patent US11819533B2.

assay: Solubility of CD101 acetate in various media; assay type: physicochemical; details: 100 mM phosphate buffer, pH 7.4, aqueous buffer; read-out: Solubility
Starred links: 1 amine or outer side, 2 acyl side, 3 side chain; linkers in the order of their positions; H or OH if unused. Positions of bridges follow the written chain, without caps; N, C: chain ends. Non-standard residues stand in square brackets, D forms with d. Residues, ends and D or L forms follow the SMILES beside them. *: point of attachment. Orn(4R-OH,5R-OCH2CH2NMe3+) = C[N+](C)(C)CCO[C@@H](N[*:3])[C@H](O)C[C@H](N[*:1])C(=O)[*:2]; pTerphenylCO(4''-OnC5H11) = CCCCCOc1ccc(-c2ccc(-c3ccc(C(=O)*)cc3)cc2)cc1; hTyr(3S-OH,4S-OH) = N[C@H](C(=O)O)[C@H](O)[C@@H](O)c1ccc(O)cc1; Pro(3S-OH,4S-Me) = C[C@H]1CN[C@H](C(=O)O)[C@H]1O; Hyp = O=C(O)[C@@H]1C[C@@H](O)CN1
REPORTED_PROPERTY: solubility

Challenge: Given CCCCCOc1ccc(-c2ccc(-c3ccc(C(=O)N[C@H]4C[C@@H](O)[C@@H](OCC[N+](C)(C)C)NC(=O)[C@@H]5[C@@H](O)[C@@H](C)CN5C(=O)[C@H]([C@@H](C)O)NC(=O)[C@H]([C@H](O)[C@@H](O)c5ccc(O)cc5)NC(=O)[C@@H]5C[C@@H](O)CN5C(=O)[C@H]([C@@H](C)O)NC4=O)cc3)cc2)cc1 [CD101 acetate] ({pTerphenylCO(4''-OnC5H11)}-[Orn(4R-OH,5R-OCH2CH2NMe3+)]T[Hyp][hTyr(3S-OH,4S-OH)]T[Pro(3S-OH,4S-Me)]; lactam 1-C) , state its recorded solubility.
Response given: 7 to 10 µg/mL

* * *

experiment: Solubility of CD101 acetate in various media; type: physicochemical; conditions: 100 mM lactate buffer, aqueous buffer; Lactate buffer (100 mM), pH 7.4; maximum solubility not reached; read-out: Solubility
Starred links: 1 amine or outer side, 2 acyl side, 3 side chain; linkers in the order of their positions; H or OH if unused. Positions of bridges follow the written chain, without caps; N, C: chain ends. Non-standard residues stand in square brackets, D forms with d. Residues, ends and D or L forms follow the SMILES beside them. *: point of attachment. Orn(4R-OH,5R-OCH2CH2NMe3+) = C[N+](C)(C)CCO[C@@H](N[*:3])[C@H](O)C[C@H](N[*:1])C(=O)[*:2]; pTerphenylCO(4''-OnC5H11) = CCCCCOc1ccc(-c2ccc(-c3ccc(C(=O)*)cc3)cc2)cc1; hTyr(3S-OH,4S-OH) = N[C@H](C(=O)O)[C@H](O)[C@@H](O)c1ccc(O)cc1; Pro(3S-OH,4S-Me) = C[C@H]1CN[C@H](C(=O)O)[C@H]1O; Hyp = O=C(O)[C@@H]1C[C@@H](O)CN1
REPORTED_PROPERTY: solubility

Challenge: Given CCCCCOc1ccc(-c2ccc(-c3ccc(C(=O)N[C@H]4C[C@@H](O)[C@@H](OCC[N+](C)(C)C)NC(=O)[C@@H]5[C@@H](O)[C@@H](C)CN5C(=O)[C@H]([C@@H](C)O)NC(=O)[C@H]([C@H](O)[C@@H](O)c5ccc(O)cc5)NC(=O)[C@@H]5C[C@@H](O)CN5C(=O)[C@H]([C@@H](C)O)NC4=O)cc3)cc2)cc1 [CD101 acetate] ({pTerphenylCO(4''-OnC5H11)}-[Orn(4R-OH,5R-OCH2CH2NMe3+)]T[Hyp][hTyr(3S-OH,4S-OH)]T[Pro(3S-OH,4S-Me)]; lactam 1-C) , state its recorded solubility.
Response given: > 51 mg/mL
